Biological target: Full-length human calmodulin (CaM) (human, UniProt P0DP23 1-149)
Test: NMR titration
MEASUREMENT_NAME: Kd
Give the figure together with its unit, number first.

(Q) Give its Kd value. Item: SPANSFHFKEAWKHAIQKAKHMPDPWA [eEF-2KCBD, calmodulin-binding segment of human eEF-2K (residues 74-100)]
(A) 36 µM
